test name: Apparent volume of distribution with respect to the bioavailability in po dosed human receiving 400 mg cumulative dose and reporting drug-associated insomnia on day 1 at 200 mg daily for 3 days followed by weekly dose of 200 mg for 6 months
Assay type: ADME, organism-based
test settings: in vivo, read-out: Vc/F
readout name: Vd/F (L/kg)
Numbers only, in L/kg.

Enquiry: What does the record list as Vd/F for COc1cc(C)c2c(Oc3cccc(C(F)(F)F)c3)c(OC)cc(NC(C)CCCN)c2n1 (stereo unspecified) ?
Return: 23.2

* * *

test name: Trough concentration in po dosed human at 200 mg daily for 3 days followed by weekly dose of 200 mg for 6 months after 8 weeks
Type: ADME, organism-based
test settings: in vivo, read-out: Cmin
readout name: concentration at 1344 h (ng/mL)
One number for each entry, in ng/mL.

Enquiry: Fill in the blank: the reported concentration at 1344 h of COc1cc(C)c2c(Oc3cccc(C(F)(F)F)c3)c(OC)cc(NC(C)CCCN)c2n1 (stereo unspecified) is ____.
Return: 221
